Biological target: β1-receptors (Homo sapiens, UniProt P08588)
Construct: Crude membrane preparations were made from the homogenates; from tissue; host or cells: human post-mortem prefrontal cortex (grey matter), crude membranes
Sequence (P08588 whole entry): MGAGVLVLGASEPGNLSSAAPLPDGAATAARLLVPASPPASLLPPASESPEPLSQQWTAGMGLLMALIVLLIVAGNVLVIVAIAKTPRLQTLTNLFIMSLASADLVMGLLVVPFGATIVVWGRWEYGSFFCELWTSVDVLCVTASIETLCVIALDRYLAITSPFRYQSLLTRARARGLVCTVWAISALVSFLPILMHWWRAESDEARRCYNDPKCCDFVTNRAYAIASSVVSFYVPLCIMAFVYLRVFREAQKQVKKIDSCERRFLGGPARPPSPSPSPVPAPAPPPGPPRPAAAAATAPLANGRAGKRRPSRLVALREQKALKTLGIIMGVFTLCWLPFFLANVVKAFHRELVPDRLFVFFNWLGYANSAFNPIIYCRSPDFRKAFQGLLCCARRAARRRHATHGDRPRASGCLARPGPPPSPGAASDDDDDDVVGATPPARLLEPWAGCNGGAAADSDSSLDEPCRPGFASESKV
Assay: [^3 H]DHA saturation binding in prefrontal cortical homogenates, β1-receptors
Conditions: suicide, n=5
From the text: Following the characterization and localization of a group effect (such as, for example, age, sex or suicide) by autoradiography, samples from at least one involved region are dissected from the relevant blocks and homogenized for saturation binding studies using well known techniques. The brains were removed at autopsy and the right hemisphere sliced in the coronal plane. […]
readout.type: Kd (nM)
Give bare numbers, in nM.

Any idea what its Kd is? The molecule is CCCc1ccccc1OCC(O)CNC(C)C (stereo not shown) [[^3 H]DHA, dihydroalprenolol]
1.7
